MEASURED_ON: erythrocytes infected with P. falciparum field isolate 9215
PROTOCOL_NOTES: flow cytometry, staining of IEs
% parasite recognition listing for selected binders.
Only the number, expressed in %, is required.

MGC35 (antibody) VH: EVQLVESGGGLVQPGGSLRLSCEASGFNSRSYWMTWVRQAPGKGLEWVASINQDATEKNYVDSVKGRFTISRDTAKNSLYLQMNSLRAEDTAVYYCARDRFCGGESHLHGQEDLPRPSISAEPGSVIPLGSLVTFVCRGPVGVHTFRLERGWTYNDTEDVSQAGPSESEARFRMDSVREGNAGLYRCIYYKPPKWSEQSAYLELRVKGGDVTWALLTYCGGDGEESDYPMDVWGKGTTVTVSS VL: QTVVTQEPSLTVSPGGTVTLTCASSTGPVTSAYYPNWFQQKPGQAPRSLIYNINKKHSWTPDRFSGSLLGGKAALTLSGVQPEDEADYYCLLSCGGAQPWVFGGGTKLTVQ    19.5

Read the next record carefully.
Reported % parasite recognition, binder MGD39 (antibody) VH: QVRLQESGPGLVKPSGTLSLTCTVSGGSISAYRWWSWVRQAPGKGLEWIGQVYNDGNTNYNPSLKGRVAMSVDKSKNRFSLRLASVTAADTAVYYCATISPLRPQSDTDDLPRPSISAEPGTVIPLGSHVTFVCRGPIGVQTFRLERERRSLYSDTEDVSQVSPFASEARFRIDSVSEGNAGPYRCIYYKDRKWSDQSDYLELLVKGEDVTWALPQSQLAPRACPQEELNISTDIFSMNVWGKGTTVTVSS VL: AIRMTQSPASLSASIGDRVTITCRTSHDVGNYLDWYQQKPGKAPKLLIHGASTLQTGVPSRFSGSGAGTDFTLNITCLQSGDFAMYYCQQYYSSPPGFGQGTRLEIK : ____
37.4
